Answer each item with its documented Enzyme Activity Endpoint Assay (purified): Fc.
biological target: pooled human IgG (human IgG1, 2, 3 and 4)
For clarity, give the value followed by its unit.

{"protein": "PRT-430 (protein) MSQTEDSESLQRLRDIEDFQAEKKKQNVVYTKWLDGVDVKDHDFRKIVDGNSAYYATPLLNGRGFYDINKDFNRDSDKCAAAVAANMFHYWLDRNRDNVDRFLRQNPEKHGIIELPDGQLKLSDFLNTYESDDGYRDKSKLFDFISNNFNGPVWTDKLLDNYINGYAYNYKYGRTIEDPTKNTSKINFFKEVFNEKILTNNHSIRNQNEFSVLLSEALYTGKAIGLSYGPAGLRHSLGHIISVWGADLDADGNVVAIYVTDSDDKKLTIGDERVGLKRYKISTDDEGRLRLTAYEETHNTGGQIRGLWTLDTGKQAWADYFDKTEQTGTDQAEQ", "result": "330 ng/µL"}

The following proteins each have a reported value; give each one's Enzyme Activity Endpoint Assay (purified): Fc.
1. PRT-611 (protein) MQITSVWTKGVTPLTPEQFRYNNEDVIHAPYLAHQGWYDITKAFDGKDNLLCGAATAGNMLHWWFDQNKTEIEAYLSKHPEKQKIIFNNQELFDLKAAIDTKDSQTNSQLFNYFRDKAFPNLSARQLGVMPDLVLDMFINGYYLNVFKTQSTDVNRPYQDKDKRGGIFDAVFTRGDQTTLLTARYDLYNKGLNDISTIIKQELTEGRALALSHTYANVSISHVINLWGADFNAEGNLEAIYVTDSDANASIGMKKYFVGINAHGHVAISAKKIEGENIGAQVLGLFTLSSGKDIWQKLSLEHHHHHH
2. PRT-438 (protein) MSQTEDSESLQRLRDIEDFQAEKKKQNVVYTKWLDGVDVKDHDFRKIVDGNIAYYATPLLNGRGLYDINKDFNRDSDKCAAAVAANMFHYWLDRNRDNVDRFLRQNPEKHGIIELPDGQLKLSDFLNTYESDDGYRDKSKLFDFISNNFNGPVWTDKLLDNYINGYAYNYKYGRTIEDPTKNTSKINFFKEVFNEKILTNNHSIRNQNEFSVLLSEALYTGKAIGLSYGPAGLRHSLGHIISVWGADLDADGNVVAIYVTDSDDKKLTIGDERVGLKRYKISTDDEGRLRLTAYEETHNTGGQIRGLWTLDTGKQAWADYFDKTEQTGTDQAEQ
3. PRT-605 (protein) MQITSVWTKGVTPLTPEQFRYNNEDVIHAPYLAHQGWYDITKAFDGKDNLLCGAATAGNMLHWWFEQNKTEIEAYLSKYGDTQKIIFNNQELFDLKAAIDTKDSQTNSQLFNYFRDKAFPNLSARQLGVMPDLVLDMFINGYYLNVFKTQSTDVNRPYQDKDKRGGIFDAVFTRGDQTTLLTARHDLKNKGLNDISTIIKQELTEGRALALSHTYANVSISHVINLWGADFNAEGNLEAIYVTDSDANASIGMKKYFVGINAHGHVAISAKKIEGENIGAQVLGLFTLSSGKEIWQKLSLEHHHHHH

result:
1. 490 ng/µL
2. 320 ng/µL
3. 357 ng/µL
